Field: CC50 at 48 h. Provide a value for each of the compounds that follow.
Experiment: Cytotoxicity against MDCK cells assessed reduction in cell viability after 48 hrs by MTT assay
Type: cell-based, Canis lupus familiaris
Details: dog, read-out: CTD50
Give bare numbers, in µM.

Please review the following examples before continuing.
compound	unit label	CC50 at 48 h
CC(=O)C1=C(O)C=C2Oc3c(C(=O)CSCc4ccccc4)c(O)c(C)c(O)c3[C@@]2(C)C1=O	µM	6.4
COc1c(C)c(O)c2c(c1C(=O)CSC1=NCCS1)OC1=CC(O)=C(C(C)=O)C(=O)[C@@]12C	µM	105

For each listed entry, give its CC50 at 48 h.
1. COc1ccccc1/C=C1\Oc2c(C)c(O)c3c(c2C1=O)OC1=CC(O)=C(C(C)=O)C(=O)[C@@]13C
2. COc1cc(/C=C/C(=O)c2c(O)c(C)c(OC)c3c2OC2=Cc4c(c(C)nn4-c4ccccc4)[C@@H](O)[C@@]23C)cc(OC)c1OC
3. COc1ccc(OC)c(/C=C/C(=O)c2c(O)c(C)c(OC)c3c2OC2=Cc4c(c(C)nn4-c4ccccc4)[C@@H](O)[C@@]23C)c1
4. CC(=O)C1=C(O)C=C2Oc3c4c(c(C)c(O)c3[C@@]2(C)C1=O)OCC4=O
5. CC(=O)C1=C(O)C=C2Oc3c(C(=O)CSc4nc5ccccc5s4)c(O)c(C)c(O)c3[C@@]2(C)C1=O
6. COc1c(C)c(O)c(C(=O)/C=C/c2ccccc2)c2c1[C@]1(C)C(=Cc3c(c(C)nn3-c3ccccc3)CC13CO3)O2 (single isomer, unassigned; (+))
7. CC(=O)c1c(O)c(C)c(O)c2c1OC1=Cc3c(c(C)nn3-c3ccccc3)[C@H](O)[C@]12C

Result ::
[32.6, 98.4, 517, 117, 58.9, 18.3, 47.8]

For each listed entry, give its CC50 at 48 h.
1. COc1ccc(/C=C/C(=O)c2c(O)c(C)c(OC)c3c2OC2=Cc4c(c(C)nn4-c4ccccc4)[C@@H](O)[C@@]23C)c(OC)c1
2. CC(=O)C1=C(O)C=C2Oc3c(C(=O)CSc4nc5ccccc5o4)c(O)c(C)c(O)c3[C@@]2(C)C1=O
3. CC(=O)C1=C(O)C=C2Oc3c(C(C)=O)c(O)c(C)c(O)c3[C@@]2(C)C1=O [(+)-USNIC ACID]
4. COc1c(C)c(O)c(C(=O)/C=C/c2ccc(Cl)cc2)c2c1[C@]1(C)C(=Cc3c(c(C)nn3-c3ccccc3)[C@H]1O)O2

Result ::
517
2
424
253

In plain terms, `COc1ccccc1/C=C/C(=O)c1c(O)c(C)c(OC)c2c1OC1=Cc3c(c(C)nn3-c3ccccc3)[C@H](O)[C@]12C` has a documented CC50 at 48 h of 909

----------
Field: selectivity ratio. Provide a value for each of the compounds that follow.
Test: Selectivity index, ratio of CTD50 for MDCK cells to ED50 for Influenza A virus (A/California/07/09(H1N1)) pdm09
Format: toxicity, cell-based
Details: dog, read-out: Selectivity Index

given smiles	selectivity ratio
COc1cccc(/C=C/C(=O)c2c(O)c(C)c(OC)c3c2OC2=Cc4c(c(C)nn4-c4ccccc4)C(=O)[C@@]23C)c1OC	4
CC(=O)c1c(O)c(C)c(O)c2c1OC1=CC(=O)/C(=C(/C)NCCC(=O)O)C(=O)[C@]12C	10
CC(=O)c1c(O)c(C)c(O)c2c1OC1=CC(=O)/C(=C(/C)N[C@@H](CC(C)C)C(=O)O)C(=O)[C@@]12C	2
CC(=O)C1=C(O)C[C@H]2Oc3c(C(C)=O)c(O)c(C)c(O)c3[C@@]2(C)C1=O	1.8
CC(=O)C1=C(O)C=C2Oc3c(C(=O)CSCc4ncccc4C(=O)O)c(O)c(C)c(O)c3[C@@]2(C)C1=O	3.1
COc1ccc(/C=C/C(=O)c2c(O)c(C)c(OC)c3c2OC2=Cc4c(c(C)nn4-c4ccccc4)[C@@H](O)[C@@]23C)c(OC)c1OC	8.5

In plain terms, `COc1cccc(/C=C/C(=O)c2c(O)c(C)c(OC)c3c2OC2=Cc4c(c(C)nn4-c4ccccc4)[C@H](O)[C@]23C)c1OC` has a documented selectivity ratio of 11.3

Value source: ChEMBL document CHEMBL3352088
